# Subject Of Test: Integrin alpha-4/beta-7 (Homo sapiens, UniProt P13612+P26010)
# Sequence (P13612 whole entry): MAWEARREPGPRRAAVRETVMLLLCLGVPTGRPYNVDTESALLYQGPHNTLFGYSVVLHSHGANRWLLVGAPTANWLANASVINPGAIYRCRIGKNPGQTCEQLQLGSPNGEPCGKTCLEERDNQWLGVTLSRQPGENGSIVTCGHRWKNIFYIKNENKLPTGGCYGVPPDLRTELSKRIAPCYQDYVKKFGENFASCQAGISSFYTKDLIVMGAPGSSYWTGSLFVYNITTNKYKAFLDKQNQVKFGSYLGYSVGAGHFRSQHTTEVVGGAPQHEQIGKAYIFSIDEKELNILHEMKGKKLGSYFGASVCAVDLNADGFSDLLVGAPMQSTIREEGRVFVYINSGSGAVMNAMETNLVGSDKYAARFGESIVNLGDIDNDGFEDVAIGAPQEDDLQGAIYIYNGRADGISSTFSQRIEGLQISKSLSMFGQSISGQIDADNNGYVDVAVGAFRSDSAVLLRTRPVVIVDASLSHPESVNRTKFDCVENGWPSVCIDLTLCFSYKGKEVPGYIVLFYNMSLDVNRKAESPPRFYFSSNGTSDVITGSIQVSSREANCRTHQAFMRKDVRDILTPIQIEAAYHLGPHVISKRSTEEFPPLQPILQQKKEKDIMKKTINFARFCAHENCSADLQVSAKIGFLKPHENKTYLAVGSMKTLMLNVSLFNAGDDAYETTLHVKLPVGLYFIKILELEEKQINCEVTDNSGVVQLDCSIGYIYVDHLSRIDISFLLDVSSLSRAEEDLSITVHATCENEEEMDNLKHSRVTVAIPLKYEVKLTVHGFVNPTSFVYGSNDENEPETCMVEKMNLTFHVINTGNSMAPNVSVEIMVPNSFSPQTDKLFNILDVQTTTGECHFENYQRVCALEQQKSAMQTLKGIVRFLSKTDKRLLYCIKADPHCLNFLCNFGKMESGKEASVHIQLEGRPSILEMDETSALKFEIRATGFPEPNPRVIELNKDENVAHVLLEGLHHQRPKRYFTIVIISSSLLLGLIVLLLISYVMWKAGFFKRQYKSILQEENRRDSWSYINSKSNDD
# Sequence (P26010 whole entry): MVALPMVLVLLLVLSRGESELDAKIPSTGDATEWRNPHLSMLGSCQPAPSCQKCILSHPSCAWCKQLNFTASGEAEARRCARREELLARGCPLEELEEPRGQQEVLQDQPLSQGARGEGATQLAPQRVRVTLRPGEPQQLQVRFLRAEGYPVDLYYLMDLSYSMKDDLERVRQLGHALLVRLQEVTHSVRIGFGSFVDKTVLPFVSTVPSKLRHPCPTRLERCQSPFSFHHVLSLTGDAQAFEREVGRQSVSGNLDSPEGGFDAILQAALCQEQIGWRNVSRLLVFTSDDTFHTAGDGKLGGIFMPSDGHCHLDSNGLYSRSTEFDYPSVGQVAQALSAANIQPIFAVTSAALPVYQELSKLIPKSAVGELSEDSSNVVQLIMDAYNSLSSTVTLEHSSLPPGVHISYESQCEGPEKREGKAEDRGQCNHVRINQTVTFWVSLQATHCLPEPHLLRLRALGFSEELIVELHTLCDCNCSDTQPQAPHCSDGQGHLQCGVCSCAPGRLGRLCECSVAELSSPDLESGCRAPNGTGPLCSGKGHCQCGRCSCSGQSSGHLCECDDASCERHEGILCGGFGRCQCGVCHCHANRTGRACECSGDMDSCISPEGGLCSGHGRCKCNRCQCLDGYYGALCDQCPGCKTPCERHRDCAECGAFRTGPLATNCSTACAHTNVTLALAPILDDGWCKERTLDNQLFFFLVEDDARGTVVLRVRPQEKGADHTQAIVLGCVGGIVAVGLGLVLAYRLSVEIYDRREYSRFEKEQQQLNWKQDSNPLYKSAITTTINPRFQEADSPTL
# Assay Protocol: Inhibition of binding of alpha-4-beta-7 integrin receptor expressed in human K562 cells to immobilized MAdCAM1
Exercise: state measured IC50 for each of the compounds provided.
Return type: number; implicit unit nM.

Query: Missing value: IC50, Integrin alpha-4/beta-7 (Homo sapiens, UniProt P13612+P26010), entry `CCOc1cnn(C)c(=O)c1-c1ccc(C[C@H](NC(=O)c2c(Cl)cccc2Cl)C(=O)O)cc1` . Fill in?
Reply: 2

Query: Missing value: IC50, Integrin alpha-4/beta-7 (Homo sapiens, UniProt P13612+P26010), entry `COc1cnn(C2CCCCC2)c(=O)c1-c1ccc(C[C@H](NC(=O)c2c(Cl)cccc2Cl)C(=O)O)cc1` . Fill in?
Reply: 330

Query: Missing value: IC50, Integrin alpha-4/beta-7 (Homo sapiens, UniProt P13612+P26010), entry `COc1cnn(Cc2ccccc2)c(=O)c1-c1ccc(C[C@H](NC(=O)c2c(Cl)cccc2Cl)C(=O)O)cc1` . Fill in?
Reply: 100

Query: Missing value: IC50, Integrin alpha-4/beta-7 (Homo sapiens, UniProt P13612+P26010), entry `Cn1ncc(OC(F)F)c(-c2ccc(C[C@H](NC(=O)c3c(Cl)cccc3Cl)C(=O)O)cc2)c1=O` . Fill in?
Reply: 8

Query: Missing value: IC50, Integrin alpha-4/beta-7 (Homo sapiens, UniProt P13612+P26010), entry `COc1cnn(CCO)c(=O)c1-c1ccc(C[C@H](NC(=O)OC(C)(C)C)C(=O)O)cc1` . Fill in?
Reply: 110

Query: Missing value: IC50, Integrin alpha-4/beta-7 (Homo sapiens, UniProt P13612+P26010), entry `Cn1ncc(O)c(-c2ccc(C[C@H](NC(=O)c3c(Cl)cccc3Cl)C(=O)O)cc2)c1=O` . Fill in?
Reply: 49

Query: Missing value: IC50, Integrin alpha-4/beta-7 (Homo sapiens, UniProt P13612+P26010), entry `COc1cnn(C)c(=O)c1-c1ccc(C[C@H](NC(=O)N(C)C)C(=O)O)cc1` . Fill in?
Reply: 1500

* * *

# Assay Protocol: AUC in rat at 30 mg/kg, po
# Type: ADME, organism-based
# Parameters: dose 30 mg/kg, route oral
# Condition Notes: plasma
Exercise: state measured AUC for each of the compounds provided.

Query: Could you tell me which AUC is on file for `COc1cnn(C)c(=O)c1-c1ccc(C[C@H](NC(=O)N(C)CC(C)C)C(=O)OCCO)cc1` ?
Reply: 47 µM·h

Query: Could you tell me which AUC is on file for `COc1cnn(C)c(=O)c1-c1ccc(C[C@H](NC(=O)c2c(Cl)cccc2Cl)C(=O)O)cc1` ?
Reply: 0.5 µM·h

Query: Could you tell me which AUC is on file for `COc1cnn(CCO)c(=O)c1-c1ccc(C[C@H](NC(=O)OC(C)(C)C)C(=O)OCCO)cc1` ?
Reply: 51 µM·h

Query: Could you tell me which AUC is on file for `COc1cnn(C)c(=O)c1-c1ccc(C[C@H](NC(=O)c2c(Cl)cccc2Cl)C(=O)OCCO)cc1` ?
Reply: 3.3 µM·h

Query: Could you tell me which AUC is on file for `COc1cnn(C)c(=O)c1-c1ccc(C[C@H](NC(=O)N(C)CC(C)C)C(=O)O)cc1` ?
Reply: 5.2 µM·h

Query: Could you tell me which AUC is on file for `CCOC(=O)[C@H](Cc1ccc(-c2c(OC)cnn(C)c2=O)cc1)NC(=O)c1c(Cl)cccc1Cl` ?
Reply: 2.3 µM·h

Query: Could you tell me which AUC is on file for `COc1cnn(CCO)c(=O)c1-c1ccc(C[C@H](NC(=O)OC(C)(C)C)C(=O)O)cc1` ?
Reply: 1.6 µM·h

Query: Could you tell me which AUC is on file for `COC(=O)[C@H](Cc1ccc(-c2c(OC)cnn(C)c2=O)cc1)NC(=O)c1c(Cl)cccc1Cl` ?
Reply: 1.7 µM·h
